Tested on: MDA-MB-468 breast
ASSAY_SUMMARY: NCI tumour cell line growth inhibition, 48 h; in the data active = GI50 below about 0.43 µM; inactive = the rest
One label from this list, please: yes (1) = active, no (0) = inactive

{"COMPOUND": "CN1C(=O)c2cc(Cl)nc3c(NC(=O)c4cccc(Cl)c4)c(Cl)c(NC(=O)c4cccc(Cl)c4)c1c23", "CLASS_ASSIGNMENT": "no (0)"}
{"COMPOUND": "Oc1ccc(-c2nnc(SCc3ccc(O)c4ncccc34)o2)cc1", "CLASS_ASSIGNMENT": "no (0)"}
{"COMPOUND": "CC1Cc2c(N(C)C)ncnc2N(C)c2ccc(Cl)cc21 (stereo not given)", "CLASS_ASSIGNMENT": "no (0)"}
{"COMPOUND": "Cc1ccc([P+](Cc2ccc([N+](=O)[O-])cc2)(c2ccc(C)cc2)c2ccc(C)cc2)cc1", "CLASS_ASSIGNMENT": "no (0)"}

With those in mind, consider the next compound.
Recorded test outcome, item COc1ccc(/C=C\c2cc(OC)c(OC)c(OC)c2)cc1OP(=O)(O)O
yes (1)

Reference source for all entries: PubChem BioAssay (NCI)
